The following binders are shown together with reported pEC50 values.
# TARGET SYSTEM: T1, human MSLN full-length protein (NCBI: AAH09272.1) expressed on HEK293T-hMSLN-B8 cells (human, UniProt Q13421 296-598)
# T1 construct: Whole encoded precursor
# T1 sequence (Q13421 other isoform, or with tags, fused parts or gaps limits assumed): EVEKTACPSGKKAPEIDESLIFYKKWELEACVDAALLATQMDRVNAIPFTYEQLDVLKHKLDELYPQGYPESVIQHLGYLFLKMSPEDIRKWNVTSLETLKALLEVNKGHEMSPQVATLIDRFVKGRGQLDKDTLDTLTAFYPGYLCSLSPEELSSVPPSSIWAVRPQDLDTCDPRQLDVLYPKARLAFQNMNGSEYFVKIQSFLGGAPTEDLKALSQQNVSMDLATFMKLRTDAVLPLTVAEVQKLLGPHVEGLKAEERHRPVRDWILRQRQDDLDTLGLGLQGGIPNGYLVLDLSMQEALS
# ASSAY OVERVIEW: FACS on HEK293T-hMSLN-B8 cells
Note: pEC50 values are expressed as the negative base-10 logarithm of concentration in M.

Please review the following examples before continuing.
[[record]]
binder = "S009-F4-94.15 (antibody, human IgG1, kappa, V domains shown, human-murine chimeric antibody, human IgG1/kappa constant regions) VH: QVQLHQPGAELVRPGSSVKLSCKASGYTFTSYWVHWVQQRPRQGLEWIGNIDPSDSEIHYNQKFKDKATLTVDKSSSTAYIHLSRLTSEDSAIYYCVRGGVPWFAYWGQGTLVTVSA VL: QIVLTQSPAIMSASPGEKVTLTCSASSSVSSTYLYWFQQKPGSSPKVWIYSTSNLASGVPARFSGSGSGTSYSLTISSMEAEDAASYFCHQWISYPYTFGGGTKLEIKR"
observed_measurement = 8.51

[[record]]
binder = "S009-F6-76.1 (antibody, human IgG1, kappa, V domains shown, human-murine chimeric antibody, human IgG1/kappa constant regions) VH: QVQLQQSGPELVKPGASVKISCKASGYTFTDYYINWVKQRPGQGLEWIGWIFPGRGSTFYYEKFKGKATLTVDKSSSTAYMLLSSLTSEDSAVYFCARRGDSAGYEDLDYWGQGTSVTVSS VL: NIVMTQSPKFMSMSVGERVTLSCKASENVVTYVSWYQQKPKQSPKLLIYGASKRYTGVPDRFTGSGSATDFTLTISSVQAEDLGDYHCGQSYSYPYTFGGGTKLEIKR"
observed_measurement = 8.86

[[record]]
binder = "S009-F5-9.16 (antibody, human IgG1, kappa, V domains shown, human-murine chimeric antibody, human IgG1/kappa constant regions) VH: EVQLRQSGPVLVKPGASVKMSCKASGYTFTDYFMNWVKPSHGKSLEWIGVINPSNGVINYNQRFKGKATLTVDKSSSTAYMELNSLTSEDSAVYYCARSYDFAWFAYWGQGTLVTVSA VL: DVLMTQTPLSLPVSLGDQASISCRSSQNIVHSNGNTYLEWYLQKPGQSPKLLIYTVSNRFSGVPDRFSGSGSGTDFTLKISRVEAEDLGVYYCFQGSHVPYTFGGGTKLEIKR"
observed_measurement = 9.12


Field pEC50 (entry S009-F4-127.10 (antibody, human IgG1, kappa, V domains shown, human-murine chimeric antibody, human IgG1/kappa constant regions) VH: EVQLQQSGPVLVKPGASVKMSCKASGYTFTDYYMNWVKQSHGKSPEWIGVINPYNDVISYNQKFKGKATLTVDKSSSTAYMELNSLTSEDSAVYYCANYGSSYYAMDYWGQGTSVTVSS VL: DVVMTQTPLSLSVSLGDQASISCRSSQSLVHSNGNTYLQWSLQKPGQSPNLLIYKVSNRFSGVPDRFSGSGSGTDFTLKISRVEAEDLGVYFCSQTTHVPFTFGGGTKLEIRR ) reads 8.22
